Items are presented alongside their recorded Lym.
Organism: Rattus norvegicus
Test: Open TG-GATES - Regimen: Daily Repeat
Type: toxicity, organism-based, Sprague-Dawley
Set-up: regimen Daily Repeat, gender Male, age 6 weeks
Details: in vivo, po, 300 mg/kg, […], tissue Blood, route gavage, dose level Middle, time 7 day
Express your answer in %, writing the number without its unit.

The examples below pair each entry with its known result.
SMILES STRING: COC(=O)C1=C(C)NC(C)=C(C(=O)OC)C1c1ccccc1[N+](=O)[O-]
OBSERVED VALUE: 69.4

SMILES STRING: CCOc1ccc(NC(C)=O)cc1
OBSERVED VALUE: 71.8

SMILES STRING: CNC(=C[N+](=O)[O-])NCCSCc1ccc(CN(C)C)o1
OBSERVED VALUE: 83.6

SMILES STRING: O=C(OC[C@H]1O[C@@H](OC(=O)c2cc(O)c(O)c(OC(=O)c3cc(O)c(O)c(O)c3)c2)[C@H](OC(=O)c2cc(O)c(O)c(OC(=O)c3cc(O)c(O)c(O)c3)c2)[C@@H](OC(=O)c2cc(O)c(O)c(OC(=O)c3cc(O)c(O)c(O)c3)c2)[C@@H]1OC(=O)c1cc(O)c(O)c(OC(=O)c2cc(O)c(O)c(O)c2)c1)c1cc(O)c(O)c(OC(=O)c2cc(O)c(O)c(O)c2)c1
OBSERVED VALUE: 81.2

SMILES STRING: CN/C(=N/CCSCc1nc[nH]c1C)NC#N
OBSERVED VALUE: 78.2

## Input Given the compound Cc1nnc2n1-c1ccc(Cl)cc1C(c1ccccc1Cl)=NC2 , what is its reported Lym?
## Output 76.6

* * *

Items are presented alongside their recorded Neu.
Organism: Rattus norvegicus
Experiment: Open TG-GATES - Regimen: Single
Type: toxicity, organism-based, Sprague-Dawley
Parameters: regimen Single, gender Male, age 6 weeks
Conditions: in vivo, po, 100 mg/kg, 24 h, tissue Blood, route gavage, dose level Low
Express your answer in %, writing the number without its unit.

SMILES STRING: Cc1nnc2n1-c1ccc(Cl)cc1C(c1ccccc1Cl)=NC2
UNITS SYMBOL: %
Neu: 26.2

Attention now shifts to the item below.
## Input Given the molecule O=C(OC[C@H]1O[C@@H](OC(=O)c2cc(O)c(O)c(OC(=O)c3cc(O)c(O)c(O)c3)c2)[C@H](OC(=O)c2cc(O)c(O)c(OC(=O)c3cc(O)c(O)c(O)c3)c2)[C@@H](OC(=O)c2cc(O)c(O)c(OC(=O)c3cc(O)c(O)c(O)c3)c2)[C@@H]1OC(=O)c1cc(O)c(O)c(OC(=O)c2cc(O)c(O)c(O)c2)c1)c1cc(O)c(O)c(OC(=O)c2cc(O)c(O)c(O)c2)c1 , what is its reported Neu?
## Output 14.8

* * *

Items are presented alongside their recorded Fbg.
Organism: Rattus norvegicus
Assay: Open TG-GATES - Regimen: Single
Format: toxicity, organism-based, Sprague-Dawley
Design: regimen Single, gender Male, age 6 weeks
Details: in vivo, po, 300 mg/kg, 24 h, tissue Blood, route gavage, dose level Middle
Express your answer in mg/dL, writing the number without its unit.

COMPOUND: Cc1nnc2n1-c1ccc(Cl)cc1C(c1ccccc1Cl)=NC2 [TRIAZOLAM]
Fbg (mg/dL): 263.2
//
COMPOUND: COC(=O)C1=C(C)NC(C)=C(C(=O)OC)C1c1ccccc1[N+](=O)[O-] [NIFEDIPINE]
Fbg (mg/dL): 298.6
//
COMPOUND: CNC(=C[N+](=O)[O-])NCCSCc1ccc(CN(C)C)o1 [RANITIDINE]
Fbg (mg/dL): 225.4

## Input Given the compound O=C(OC[C@H]1O[C@@H](OC(=O)c2cc(O)c(O)c(OC(=O)c3cc(O)c(O)c(O)c3)c2)[C@H](OC(=O)c2cc(O)c(O)c(OC(=O)c3cc(O)c(O)c(O)c3)c2)[C@@H](OC(=O)c2cc(O)c(O)c(OC(=O)c3cc(O)c(O)c(O)c3)c2)[C@@H]1OC(=O)c1cc(O)c(O)c(OC(=O)c2cc(O)c(O)c(O)c2)c1)c1cc(O)c(O)c(OC(=O)c2cc(O)c(O)c(O)c2)c1 [TANNIC ACID] , what is its reported Fbg?
## Output 217.8

## Input Given the compound CN/C(=N/CCSCc1nc[nH]c1C)NC#N [CIMETIDINE] , what is its reported Fbg?
## Output 214.8

The values you see were collected from ChEMBL document CHEMBL3885861.
